Values were extracted from PubChem BioAssay AID1531.

Target: Mitogen-activated protein kinase kinase kinase 2 (Homo sapiens) (UniProt Q9Y2U5)
Experiment: modulators of MEK5 binding to wildtype MEKK2, primary screen, biochemical, multiplex bead flow cytometry, Alexa488-MEK5 (AID 1531)
Conditions: Alexa488-MEK5 binding to MEKK2 WT, at 10 µM, actives lie on both sides
In all, about 290,000 compounds went through this assay and about 3,300 (1.1%) were called active. Rule as the data show it: active = binding response below about 67% or above about 130%; inconclusive = no clear call, values can overlap the other calls; inactive = in between. The list comes from a sample in which actives are over-represented; it also holds close analogues and randomly drawn compounds.
Possible outcomes: active, inactive

| molecule | discrete.label |
| --- | --- |
| Fc1ccc(-c2ccc(CNCc3ccccn3)o2)cc1Cl | active |
| CCOC(=O)C1(Cc2ccccc2C(F)(F)F)CCN(C(=O)c2cc(C)n(C)n2)CC1 | inactive |
| COCCNC(=O)CSc1nc2sccc2c(=O)n1-c1ccccc1 | inactive |
| O=C(NCc1ccccn1)c1cc(Br)ccc1Cl | inactive |
| C=C1CCN([C@@H](Cc2ccccc2)C(=O)N2CCOCC2)S(=O)(=O)c2ccccc21 | inactive |
| C=Cn1cc[n+](CC(=O)c2ccc(OC)c(OC)c2)c1 | inactive |
| Cc1ccc2c(c1)N(CC(=O)N1CCC(O)CC1)C(=O)CO2 | inactive |
| COc1ccc(CCNC(=O)CCNS(=O)(=O)c2cc(Br)cnc2N)cc1OC | inactive |
| COc1ccc(-c2ccc(CNCCCN3CCOCC3)o2)cc1Cl | inactive |
| O=C(NCC1CC1)c1onc(CSc2ccccc2)c1C(=O)NCC1CC1 | inactive |
| Cc1ccc(S(=O)(=O)N2CCN(C(=O)CSc3cc(C)ccc3C)CC2)c(C)c1 | inactive |
| CCc1nn(CC(=O)N2CCN(CC)CC2)c(=O)c2cccn12 | inactive |
| CSc1ccc(/C=N/N2CCN(Cc3ccccc3Cl)CC2)cc1 | inactive |
| CN1CCN(/N=C/c2ccc(C#N)cc2)CC1 | active |
| CC1CN(S(=O)(=O)c2cccc(C(F)(F)F)c2)CN1C(=O)N1CCOCC1 (stereo not drawn) | inactive |
| O=C1N[C@@H](Cc2ccccc2)C(=O)N2[C@@H]3N(S(=O)(=O)c4ccc(F)cc4)c4ccccc4[C@]3(Br)C[C@@H]12 | inactive |
| Cc1ccccc1C1CC(c2cccs2)=NN1S(C)(=O)=O (stereo not drawn) | active |
| CC1CCCN(c2ccc(C(=O)NCCc3ccccc3)cn2)C1 (stereo not drawn) | inactive |
| COc1ccc(NC2CCCN(C(=O)c3ccncc3)C2)cc1 (stereo not drawn) | inactive |
| CSc1ccc(S(=O)(=O)N2CCC(C(=O)NCc3ccncc3)CC2)cc1 | inactive |
| COc1ccccc1N1N=C(c2cccs2)CC1c1ccccc1 (stereo not drawn) | inactive |
| O=C(NCCc1ccccc1)C1CC1 | inactive |
| O=C(Nc1ccccc1Cl)NC1(C(=O)N2CCOCC2)CCCCC1 | inactive |
